Protocol details: yeast 75Q aggregation reduction – 75Q-TubU reporter (AID 1593)
Recorded conditions: Yeast 75Q polyglutamine aggregation reporter
Readout kind: score
Lab note: jot the number down without any unit.

Some solved cases for reference:
>>> result("CCCN(CCC)C(=O)C(CCC(=O)O)NC(=O)c1ccccc1 (configuration not stated)")
1.14
>>> result("CCOC(N)=O")
1.23

Give its score value. Item: "Cc1cc2cc3c(C)cc(=O)oc3c(C)c2o1"
0.49

Same thing, different compound: "CN(C)CCCN1c2ccccc2Sc2ccc(C(F)(F)F)cc21"
1.13

Same thing, different compound: C=CCc1ccccc1OCC(O)CNC(C)C (configuration not stated)
1.39

Same thing, different compound: NS(=O)(=O)c1cc2c(cc1Cl)NC(C(Cl)Cl)NS2(=O)=O (configuration not stated)
1.03

Same thing, different compound: "CS(=O)(=O)c1ccc([C@@H](O)[C@@H](CO)NC(=O)C(Cl)Cl)cc1"
0.79

Same thing, different compound: "COc1ccc2cc3[n+](cc2c1OC)CCc1cc2c(cc1-3)OCO2"
0.32

Same thing, different compound: "CC(C)(Oc1ccc(CCNC(=O)c2ccc(Cl)cc2)cc1)C(=O)O"
1.19

Same thing, different compound: "O=C(Cn1ccnc1[N+](=O)[O-])NCCO"
1.21

Same thing, different compound: CCn1cc(C(=O)O)c(=O)c2cc(F)c(N3CCNC(C)C3)c(F)c21 (configuration not stated)
1.15

Same thing, different compound: "Nc1ccc(N=Nc2ccccc2)c(N)n1"
1.35

----------
System: Neuropilin-2 / VEGF-C interaction (human)
Protocol details: small molecules blocking Neuropilin-2/VEGF-C interaction – biochemical, microplate binding format, z-score (AID 743281)
Recorded conditions: microplate NRP2/VEGF-C binding assay; stronger effect = lower value
Consider the following compounds and their measured z-score readings.
Lab note: jot the number down without any unit.

Some solved cases for reference:
>>> result("CC(C(=O)O)c1ccc(CC2CCCC2=O)cc1 (stereo unspecified)")
-0.224
>>> result("Cc1nccn1CC1CCc2c(c3ccccc3n2C)C1=O (stereo unspecified)")
-0.188
>>> result("COC(=O)C1=C(C)NC(C)=C(C(=O)OC(C)C)C1c1cccc2nonc12 (stereo unspecified)")
-2.69
>>> result("COc1ccccc1N1CCN(CC(O)COc2cccc3ccccc23)CC1 (stereo unspecified)")
1.13
>>> result("COc1ccccc1OCC(O)CN1CCN(CC(=O)Nc2c(C)cccc2C)CC1 (stereo unspecified)")
0.514
>>> result("Nc1[nH]c(=O)ncc1F")
-0.751
>>> result("CN1CCC(=C2c3ccccc3CCc3sccc32)CC1")
1.11
>>> result("O=C1CCc2ccc(OCCCCN3CCN(c4cccc(Cl)c4Cl)CC3)cc2N1")
1.76

Give its z-score value. Item: "CN(C)CC/C=C1/c2ccccc2COc2ccc(CC(=O)O)cc21"
-0.65

Same thing, different compound: CCN1CCCC1CNC(=O)c1cc(S(=O)(=O)CC)c(N)cc1OC (stereo unspecified)
-0.283

Same thing, different compound: "O=C(c1ccc(F)cc1)C1CCN(CCn2c(=S)[nH]c3ccccc3c2=O)CC1"
0.126

----------
Protocol details: polyglutamine aggregate formation blockers (AID 1604)
Recorded conditions: polyglutamine-induced protein aggregation inhibition assay; stronger effect = higher value; concentration not given here
Use 60% as the dividing line for inhibition of aggregation, with the line itself on the MET side and lower values as NOT MET.

Use these answered entries as a reference point.
>>> cat("COc1cc(NS(=O)(=O)c2ccc(N)cc2)nc(OC)n1")
"MET"
>>> cat("CCCCC1(COC(=O)CCC(=O)O)C(=O)N(c2ccccc2)N(c2ccccc2)C1=O")
"NOT MET"

Identify whether the reported inhibition of aggregation of the following compound is 60% or greater: "S=P(N1CC1)(N1CC1)N1CC1"
MET

Same thing, different compound: "Cc1cc(CC(=O)O)n(C)c1C(=O)c1ccc(Cl)cc1"
MET

Same thing, different compound: "Cc1cc(=O)n(-c2ccccc2)n1C"
NOT MET

Same thing, different compound: "Cc1cc2cc3c(C)cc(=O)oc3c(C)c2o1"
MET
